assay.system: T1, GST-human NOGO-A56 (human)
T1 construct: Expressed in E. coli BL21 from pGEX-6P1 and purified on glutathione-sepharose; the GST tag is part of the protein in the assays; also called GST-Nogo-A 5+6; GST Nogo-A 5 + 6
T1 sequence (chain, as listed by the source limits assumed): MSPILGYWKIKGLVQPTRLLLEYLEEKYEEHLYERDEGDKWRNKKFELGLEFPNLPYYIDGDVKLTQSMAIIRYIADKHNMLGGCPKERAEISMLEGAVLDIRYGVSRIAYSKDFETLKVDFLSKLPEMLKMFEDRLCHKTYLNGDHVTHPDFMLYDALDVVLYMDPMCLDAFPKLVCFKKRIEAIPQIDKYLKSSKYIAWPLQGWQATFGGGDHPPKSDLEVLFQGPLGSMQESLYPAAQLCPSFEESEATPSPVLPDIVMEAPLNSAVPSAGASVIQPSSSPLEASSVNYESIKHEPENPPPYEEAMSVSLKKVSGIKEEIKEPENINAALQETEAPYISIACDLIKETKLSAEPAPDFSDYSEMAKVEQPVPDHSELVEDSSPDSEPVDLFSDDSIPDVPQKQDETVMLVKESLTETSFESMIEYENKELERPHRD
assay.summary: SPR (Biacore), GST-human NOGO-A56 amine-coupled to CM5, antibody flowed over, 25 C
Listed here: items and their measured kon.
assay.endpoint: kon (M⁻¹ s⁻¹)

INSERT INTO assay_data (binder, assay_result) VALUES
  ('H26L13 (antibody, human IgG1, kappa, V domains shown, H26 FL is H6 FL with G95M (Kabat); IgG1 (L235A, G237A) / kappa; CAMPATH-1H signal (1-19) left out; also called H6(G95M)L13; H6L13 with VH CDR3 MQGY) VH: QVQLVQSGAEVKKPGASVKVSCKASGYTFTSYWMHWVRQAPGQGLEWIGNINPSNGGTNYNEKFKSRATMTRDTSTSTAYMELSSLRSEDTAVYYCELMQGYWGQGTLVTVSS VL: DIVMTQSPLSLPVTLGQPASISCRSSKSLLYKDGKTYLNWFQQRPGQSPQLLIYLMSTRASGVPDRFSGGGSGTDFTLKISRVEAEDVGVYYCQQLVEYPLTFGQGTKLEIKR', '3.23e+06'),
  ('HcLc (chimera of 2A10: murine 2A10 VH and VL with human IgG constant regions) (antibody, V domains shown, also called chimeric antibody; chimeric form of the parental antibody) VH: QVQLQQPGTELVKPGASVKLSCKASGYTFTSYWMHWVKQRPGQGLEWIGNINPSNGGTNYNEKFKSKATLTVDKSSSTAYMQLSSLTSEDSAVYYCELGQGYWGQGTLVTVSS VL: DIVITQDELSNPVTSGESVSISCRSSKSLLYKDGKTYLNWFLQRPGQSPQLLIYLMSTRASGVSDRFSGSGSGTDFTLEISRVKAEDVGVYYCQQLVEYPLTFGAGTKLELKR', '3.19e+06'),
  ('H28L13 (antibody, human IgG1, kappa, V domains shown, IgG1 (L235A, G237A) / kappa; CAMPATH-1H signal (1-19) left out; also called H28FL L13FL) VH: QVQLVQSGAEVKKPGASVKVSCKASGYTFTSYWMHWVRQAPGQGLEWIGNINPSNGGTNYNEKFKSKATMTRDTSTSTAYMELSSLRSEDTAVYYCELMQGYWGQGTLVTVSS VL: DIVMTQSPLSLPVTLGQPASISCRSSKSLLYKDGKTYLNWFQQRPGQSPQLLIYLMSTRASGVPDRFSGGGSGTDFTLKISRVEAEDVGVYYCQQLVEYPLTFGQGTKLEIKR', '7.26e+06'),
  ('H27L16 (antibody, human IgG1, kappa, V domains shown, IgG1 (L235A, G237A) / kappa; CAMPATH-1H signal (1-19) left out; also called H27FL L16FL) VH: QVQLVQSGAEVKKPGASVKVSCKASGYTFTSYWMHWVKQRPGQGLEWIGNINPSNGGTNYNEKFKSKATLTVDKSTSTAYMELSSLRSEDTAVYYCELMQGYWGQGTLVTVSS VL: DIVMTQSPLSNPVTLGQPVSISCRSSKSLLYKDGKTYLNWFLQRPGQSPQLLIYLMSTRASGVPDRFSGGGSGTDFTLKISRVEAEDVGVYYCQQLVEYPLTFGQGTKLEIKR', '6.24e+06');
